- ASSAYED_SYSTEM: purified recombinant human Aggrecanase-2 (Ag2t-Phe628-Strep) (Homo sapiens)
- Construct: the form used is denoted as Ag2t-Phe628-Strep (MW=41,737)
- Sequence (Q9UNA0 262-628): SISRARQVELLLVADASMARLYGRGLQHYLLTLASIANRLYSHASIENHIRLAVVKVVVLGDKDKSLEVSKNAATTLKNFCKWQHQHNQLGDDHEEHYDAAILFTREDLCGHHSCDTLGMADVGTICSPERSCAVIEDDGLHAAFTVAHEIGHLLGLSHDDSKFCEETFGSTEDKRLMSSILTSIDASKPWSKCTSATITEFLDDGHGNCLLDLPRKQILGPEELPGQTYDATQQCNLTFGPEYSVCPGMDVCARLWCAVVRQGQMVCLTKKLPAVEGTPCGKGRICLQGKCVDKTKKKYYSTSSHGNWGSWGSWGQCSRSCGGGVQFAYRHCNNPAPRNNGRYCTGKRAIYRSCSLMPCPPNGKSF
- EXPERIMENTAL_PROTOCOL: In vitro fluorescence screen for Aggrecanase-2 inhibitors
- TEST_CONDITIONS: Table 3; read-out: Ki Agg2
pKi: −log10 of the molar value.
# binarize pKi: threshold 7 inclusive, high side 1 (yes), low side 0 (no)

>>> label("CC(C)(Cc1ccc(F)cc1)NC(=O)[C@H](CCC(=O)O)NC(=O)c1ccc(-c2ccc(Cl)s2)cc1")
"1 (yes)"
>>> label("CC(C)(Cc1ccc(Cl)s1)NC(=O)[C@H](CCC(=O)O)NC(=O)c1ccc(-c2cccc(F)c2)cc1")
"1 (yes)"
>>> label("CC(C)(Cc1ccccc1)NC(=O)[C@H](CCC(=O)O)NC(=O)c1ccc(-c2ccc(F)cc2)cc1")
"0 (no)"
>>> label("CC(C)(Cc1ccc(F)cc1)NC(=O)[C@H](CCC(=O)O)NC(=O)c1ccc(-c2ccc(Cl)cc2)s1")
"0 (no)"
>>> label("CC(C)(Cc1ccc(F)cc1)NC(=O)[C@H](CCC(=O)O)NC(=O)c1ccc(-c2ccc(F)c(Cl)c2)s1")
"1 (yes)"
>>> label("CC(C)(Cc1ccc(F)cc1)NC(=O)[C@H](CCC(=O)O)NC(=O)c1ccc(-c2ccc(Cl)cc2)cc1")
"1 (yes)"
>>> label("CC(C)(Cc1ccc(F)cc1)NC(=O)[C@H](CCC(=O)O)NC(=O)c1ccc(-c2cccs2)s1")
"0 (no)"
>>> label("CC(C)(Cc1ccc(Cl)cc1)NC(=O)[C@H](CCC(=O)O)NC(=O)c1ccc(-c2cccs2)cc1")
"1 (yes)"
>>> label("CC(C)(Cc1ccccc1)NC(=O)[C@H](CCC(=O)O)NC(=O)c1ccc(-c2cccc(F)c2)cc1")
"0 (no)"
>>> label("CC(C)(Cc1ccc(Cl)cc1)NC(=O)[C@H](CCC(=O)O)NC(=O)c1ccc(-c2cccc(Cl)c2)cc1")
"0 (no)"
>>> label("CC(C)(Cc1ccc(Cl)cc1)NC(=O)[C@H](CCC(=O)O)NC(=O)c1ccc(-c2ccc(Cl)s2)nc1")
"0 (no)"
>>> label("CC(C)(Cc1ccc(Cl)cc1)NC(=O)[C@H](CCC(=O)O)NC(=O)c1ccc(-c2cccs2)s1")
"0 (no)"
>>> label("COc1cccc(-c2ccc(C(=O)N[C@@H](CCC(=O)O)C(=O)NC(C)(C)Cc3ccc(Cl)cc3)s2)c1")
"0 (no)"
>>> label("CC(C)(Cc1ccccc1)NC(=O)[C@H](CCC(=O)O)NC(=O)c1ccc(-c2ccc(Cl)s2)nc1")
"0 (no)"
>>> label("CC(C)(Cc1ccc(F)cc1)NC(=O)[C@H](CCC(=O)O)NC(=O)c1ccc(-c2ccc(Cl)s2)nc1")
"0 (no)"
>>> label("CC(C)(Cc1ccccc1)NC(=O)[C@H](CCC(=O)O)NC(=O)c1ccc(-c2ccc(Cl)cc2)s1")
"0 (no)"
>>> label("CC(C)(Cc1ccc(F)cc1)NC(=O)[C@H](CCC(=O)O)NC(=O)c1ccc(-c2cccs2)cc1")
"1 (yes)"
>>> label("CC(C)(Cc1ccc(Cl)cc1)NC(=O)[C@H](CCC(=O)O)NC(=O)c1ccc(-c2ccccc2)s1")
"0 (no)"
>>> label("CC(C)(Cc1ccccc1)NC(=O)[C@H](CCC(=O)O)NC(=O)c1ccc(-c2cccs2)cc1")
"1 (yes)"
>>> label("CC(C)(Cc1ccc(Cl)cc1)NC(=O)[C@H](CCC(=O)O)NC(=O)c1ccc(-c2ccc(Cl)s2)cc1")
"1 (yes)"
